Value source: patent US20190077863A1

# Tgt: T1, Human VE-PTP (HPTP-β) containing first eight FN3 repeats with C-terminal His6 tag (Human ½ VE-PTP ECD) (human, UniProt P23467 23-820)
# T1 construct: Produced in HEK293 cells and purified by the His tag; it was not cut off; also called Human Beta ½ ECD
# T1 sequence: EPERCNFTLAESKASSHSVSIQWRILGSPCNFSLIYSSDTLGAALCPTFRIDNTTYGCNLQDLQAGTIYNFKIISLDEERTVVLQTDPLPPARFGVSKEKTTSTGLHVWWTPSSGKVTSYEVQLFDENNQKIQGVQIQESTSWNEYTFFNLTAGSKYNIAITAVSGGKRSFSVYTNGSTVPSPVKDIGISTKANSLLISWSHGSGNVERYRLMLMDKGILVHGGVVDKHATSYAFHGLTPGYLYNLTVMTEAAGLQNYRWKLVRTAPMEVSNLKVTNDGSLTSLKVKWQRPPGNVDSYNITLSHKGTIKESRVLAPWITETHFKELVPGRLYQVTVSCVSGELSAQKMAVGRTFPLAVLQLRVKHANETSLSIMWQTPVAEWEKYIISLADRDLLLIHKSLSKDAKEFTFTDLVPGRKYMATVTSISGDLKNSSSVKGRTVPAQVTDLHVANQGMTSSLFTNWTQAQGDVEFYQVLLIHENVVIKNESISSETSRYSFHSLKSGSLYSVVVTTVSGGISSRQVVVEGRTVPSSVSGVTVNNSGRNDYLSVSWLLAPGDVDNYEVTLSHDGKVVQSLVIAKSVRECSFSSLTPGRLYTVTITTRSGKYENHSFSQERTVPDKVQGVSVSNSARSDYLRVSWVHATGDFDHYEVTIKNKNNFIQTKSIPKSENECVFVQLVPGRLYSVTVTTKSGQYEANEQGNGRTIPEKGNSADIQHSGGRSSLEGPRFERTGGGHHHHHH
# Assay Notes: SPR (Biacore 3000), antibody captured on anti-human IgG, antigen as analyte 50-0 nM
Here the recorded Kd is given for each entry.

Binder	Kd (nM)
humanized R15E6 variant HC2LC4 (antibody, human IgG4 S228P, kappa, V domains shown, Human IgG4 (S228P) / kappa, expressed in CHO cells; Signal peptides left out by range; also called VH2-VL4) VH: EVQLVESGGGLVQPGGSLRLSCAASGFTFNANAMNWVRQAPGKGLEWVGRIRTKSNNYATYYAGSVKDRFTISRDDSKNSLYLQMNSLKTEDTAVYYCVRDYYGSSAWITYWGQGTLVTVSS VL: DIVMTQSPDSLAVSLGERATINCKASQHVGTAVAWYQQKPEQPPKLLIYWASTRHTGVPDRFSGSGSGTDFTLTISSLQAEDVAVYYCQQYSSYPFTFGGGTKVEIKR	0.436
mouse/human chimeric antibody HC0LC0 (antibody, human IgG4 S228P, kappa, V domains shown, Murine variable domains of R15E6 on human IgG4 (S228P) and kappa constant domains, expressed in CHO cells; also called VH0-VL0) VH: EVQLVETGGGLVQPKGSMKLSCAASGFTFNANAMNWIRQAPGKGLEWVARIRTKSNNYATYYAGSVKDRFTISRDDAQNMLYLQMNDLKTEDTAMYYCVRDYYGSSAWITYWGQGTLVTVSA VL: DIVMTQSHKFMSTSVGDRVSITCKASQHVGTAVAWYQQKPDQSPKQLIYWASTRHTGVPDRFTGSGSGTDFTLTISNVQSEDLADYFCQQYSSYPFTFGSGTKLEIKR	3.14
humanized R15E6 variant HC1LC4 (antibody, human IgG4 S228P, kappa, V domains shown, Human IgG4 (S228P) / kappa, expressed in CHO cells; Signal peptides left out by range; also called VH1-VL4) VH: EVQLVESGGGLVQPGGSLKLSCAASGFTFNANAMNWVRQASGKGLEWVGRIRTKSNNYATYYAGSVKDRFTISRDDSKNTAYLQMNSLKTEDTAAYYCVRDYYGSSAWITYWGQGTLVTVSS VL: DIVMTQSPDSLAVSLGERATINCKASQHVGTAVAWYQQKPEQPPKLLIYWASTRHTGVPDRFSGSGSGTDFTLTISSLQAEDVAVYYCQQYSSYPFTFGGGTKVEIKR	2.25
humanized R15E6 variant HC2LC1 (antibody, human IgG4 S228P, kappa, V domains shown, Human IgG4 (S228P) / kappa, expressed in CHO cells; Signal peptides left out by range; also called VH2-VL1) VH: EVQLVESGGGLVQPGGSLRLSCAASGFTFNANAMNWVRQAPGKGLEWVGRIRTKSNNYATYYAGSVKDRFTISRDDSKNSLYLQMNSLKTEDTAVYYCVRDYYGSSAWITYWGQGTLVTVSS VL: DVVMTQSPSFLSASVGDRVTITCKASQHVGTAVAWYQQRPGKAPKLLIYWASTRHTGVPSRFSGSGSGTEFTLTISSLQPEDFATYFCQQYSSYPFTFGGGTKLEIKR	0.0668
humanized R15E6 variant HC1LC2 (antibody, human IgG4 S228P, kappa, V domains shown, Human IgG4 (S228P) / kappa, expressed in CHO cells; Signal peptides left out by range; also called VH1-VL2) VH: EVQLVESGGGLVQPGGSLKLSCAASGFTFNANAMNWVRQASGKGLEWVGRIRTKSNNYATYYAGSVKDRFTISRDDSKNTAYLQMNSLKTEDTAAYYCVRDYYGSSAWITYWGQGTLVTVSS VL: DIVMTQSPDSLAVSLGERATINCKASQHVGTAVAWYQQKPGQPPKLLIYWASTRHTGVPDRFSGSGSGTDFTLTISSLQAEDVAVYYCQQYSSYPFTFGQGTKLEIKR	2.31
